The following variants are shown together with reported protein stability index values.
B1: RHOBTB3 (parent)
chain: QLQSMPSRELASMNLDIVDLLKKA

- Variants of: B1
- run.description: protein stability index of a GFP-peptide fusion (GPS, HEK-293T) (PSI 1-6); higher = more stable;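 also: lentivirally expressed fusions sorted by FACS into six bins by GFP to DsRed ratio, PSI derived from sequencing read proportions per bin multiplied by bin number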
- experimental.parameters: c terminus: a fixed tail appended
Give the figure only, with no unit attached.

Known results for variants:
| variant.identifier | protein stability index |
| --- | --- |
| V18H | 3.5 |
| M5G | 2.58 |
| I17C | 3.87 |
| V18Q | 3.89 |
| M13A | 4 |

Now let's try a different one.
Look at this variant and give its reported protein stability index. S12G
3.9

Where these numbers come from: the supplement of paper PMC10567573
